biological target: hGIPR (Homo sapiens, UniProt P48546); assay: Functional cAMP activity in the presence of 1% HSA; type: cell-based; conditions: read-out: cAMP Rel EC50, hGIPR
Sequence (P48546 22-466): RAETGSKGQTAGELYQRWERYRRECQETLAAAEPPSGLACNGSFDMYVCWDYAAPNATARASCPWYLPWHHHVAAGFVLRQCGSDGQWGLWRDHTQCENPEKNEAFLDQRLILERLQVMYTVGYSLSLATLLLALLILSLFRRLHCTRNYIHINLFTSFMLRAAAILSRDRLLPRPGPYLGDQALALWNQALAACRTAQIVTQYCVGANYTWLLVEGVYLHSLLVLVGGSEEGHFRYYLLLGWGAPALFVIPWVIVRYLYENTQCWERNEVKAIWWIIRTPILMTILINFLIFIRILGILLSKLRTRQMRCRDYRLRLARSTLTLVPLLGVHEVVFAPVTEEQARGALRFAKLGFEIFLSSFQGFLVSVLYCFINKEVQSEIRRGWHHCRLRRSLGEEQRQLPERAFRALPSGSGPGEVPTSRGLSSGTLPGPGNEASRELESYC
Starred links: 1 amine or outer side, 2 acyl side, 3 side chain; linkers in the order of their positions; H or OH if unused. Non-standard residues stand in square brackets, D forms with d. Groups on a side chain read outwards from the residue. *: point of attachment. C18 diacid = O=C(O)CCCCCCCCCCCCCCCCC(=O)*; αMePhe(2-F) = C[C@](N)(Cc1ccccc1F)C(=O)O; γGlu = O=C(O)[C@H](CCC(=O)[*:2])N[*:1]; αMe4Pal = C[C@](N)(Cc1ccncc1)C(=O)O; αMeY = C[C@](N)(Cc1ccc(O)cc1)C(=O)O; 4Pal = N[C@@H](Cc1ccncc1)C(=O)O; αMeL = CC(C)C[C@](C)(N)C(=O)O; αMeS = C[C@](N)(CO)C(=O)O; Orn = NCCC[C@H](N)C(=O)O; Aib = CC(C)(N)C(=O)O

substance	EC50
H-Y[Aib]QGT[αMePhe(2-F)]TSD[4Pal][αMeS]ILLD[Orn]K([γGlu-γGlu-C18 diacid])AQ[Aib][Orn]FI[dE]YLIEGGPSSGEPPPSGTEE-NH2 [Example 576]	8.12 nM
H-Y[Aib]QGTFTSD[4Pal]SR[αMeL]LDKK([γGlu-γGlu-C18 diacid])AQ[αMe4Pal]AFIEYLIAGGPSSGAPPPSGSEE-NH2 [Example 962]	9.71 nM
H-Y[Aib]QGT[αMePhe(2-F)]TSD[4Pal][αMeS]I[αMeL]LD[Orn]K([γGlu-γGlu-C18 diacid])AQ[Aib][Orn]FI[dE][αMeY]LSEGGPSSGEPPPSGGEE-NH2 [Example 568]	13.2 nM
H-Y[Aib]QGT[αMePhe(2-F)]TSD[4Pal]SILLDKK([γGlu-γGlu-C18 diacid])AQ[Aib]AFIEYLEEGGPSSGAPPPSGGGE-NH2 [Example 619]	6.78 nM
